Reference source: paper PMC12416549

# maps each entry to its apparent Kd (screen)
experimental-target: T1, TNFR1 (Homo sapiens, UniProt P19438)
T1 chain: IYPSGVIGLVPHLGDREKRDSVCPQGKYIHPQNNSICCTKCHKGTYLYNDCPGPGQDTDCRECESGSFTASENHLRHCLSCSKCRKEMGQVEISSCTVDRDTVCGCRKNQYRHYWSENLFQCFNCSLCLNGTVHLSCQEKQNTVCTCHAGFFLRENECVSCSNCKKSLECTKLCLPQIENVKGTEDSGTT
assay-protocol: yeast display SC50
experimental-endpoint: apparent Kd (screen) (nM)

1) R97L (designed binder) MTLQELLREEALRRAEAEAFRYALELLAEKFPEQKEYLLDLAEEIESQIRSLSGVDVEDVRKFLDKEWAWVKELLAEHPAELAEVEAARAARLAELLAEVEAKVAA = 0.653
2) D40L (designed binder) MTLQELLREEALRRAEAEAFRYALELLAEKFPEQKEYLLLLAEEIESQIRSLSGVDVEDVRKFLDKEWAWVKELLAEHPAELAEVEAARAARLAELRAEVEAKVAA = 1.4
3) L64F (designed binder) MTLQELLREEALRRAEAEAFRYALELLAEKFPEQKEYLLDLAEEIESQIRSLSGVDVEDVRKFFDKEWAWVKELLAEHPAELAEVEAARAARLAELRAEVEAKVAA = 0.869
4) H78F (designed binder) MTLQELLREEALRRAEAEAFRYALELLAEKFPEQKEYLLDLAEEIESQIRSLSGVDVEDVRKFLDKEWAWVKELLAEFPAELAEVEAARAARLAELRAEVEAKVAA = 0.446
5) D65A (designed binder) MTLQELLREEALRRAEAEAFRYALELLAEKFPEQKEYLLDLAEEIESQIRSLSGVDVEDVRKFLAKEWAWVKELLAEHPAELAEVEAARAARLAELRAEVEAKVAA = 0.653
6) K35S (designed binder) MTLQELLREEALRRAEAEAFRYALELLAEKFPEQSEYLLDLAEEIESQIRSLSGVDVEDVRKFLDKEWAWVKELLAEHPAELAEVEAARAARLAELRAEVEAKVAA = 0.653
7) A17D (designed binder) MTLQELLREEALRRAEDEAFRYALELLAEKFPEQKEYLLDLAEEIESQIRSLSGVDVEDVRKFLDKEWAWVKELLAEHPAELAEVEAARAARLAELRAEVEAKVAA = 0.79
8) S53F (designed binder) MTLQELLREEALRRAEAEAFRYALELLAEKFPEQKEYLLDLAEEIESQIRSLFGVDVEDVRKFLDKEWAWVKELLAEHPAELAEVEAARAARLAELRAEVEAKVAA = 0.956
